STUDY_SYSTEM: human α-thrombin (Homo sapiens)
Construct: 50 μl human α-thrombin (Kordia); purchased Kordia
PROTOCOL_DETAILS: Determination of Ki for thrombin inhibition (chromogenic or fluorogenic substrate, Dixon)
Type: biochemical
EXPERIMENTAL_CONDITIONS: Table I, formula (II) compounds
Method: The Ki values are the average values of at least three calculations. For determining the thrombin inhibiting effect of all reversibly binding inhibitors and inhibitor conjugates with inhibiting constants smaller than 1 nM, a fluorescence spectrometer (LS50B from the company Perkin Elmer) was used. […] The Ki values are the average values of at least three calculations.
Listed below: Ki values for each entry.
EXPERIMENTAL_ENDPOINT: Ki (nM)

> print(dat)
                                    molecule  reported.measurement
 1  Cc1c(C)c(C)c(S(=O)(=O)NCC(=O)N2CCC[C@H]2C(=O)NCc2ccc(C(=N)N)cc2)c(C)c1C                  12.7
 2  CC(C)c1cc(C(C)C)c(S(=O)(=O)NCC(=O)N2CCC[C@H]2C(=O)NCc2ccc(C(=N)N)cc2)c(C(C)C)c1                  13.5
 3  N=C(N)c1ccc(CNC(=O)[C@@H]2CCCN2C(=O)CNS(=O)(=O)c2cc(Cl)cc(Cl)c2)cc1                   8.5
 4  N=C(N)c1ccc(CNC(=O)[C@@H]2CCCN2C(=O)CNS(=O)(=O)c2cccc([N+](=O)[O-])c2)cc1                    38
 5  CC(C)(C)c1ccc(S(=O)(=O)NCC(=O)N2CCC[C@H]2C(=O)NCc2ccc(C(=N)N)cc2)cc1                  32.2
 6  Cc1c(C)c(S(=O)(=O)NCC(=O)N2CCC[C@H]2C(=O)NCc2ccc(C(=N)N)cc2)c(C)c2c1OC(C)(C)C2                  30.3
 7  Cc1cc(Cl)cc(Cl)c1S(=O)(=O)NCC(=O)N1CCC[C@H]1C(=O)NCc1ccc(C(=N)N)cc1                  16.9
 8  COc1ccc(S(=O)(=O)NCC(=O)N2CCC[C@H]2C(=O)NCc2ccc(C(=N)N)cc2)cc1C                  0.64
 9  N=C(N)c1ccc(CNC(=O)[C@@H]2CCCN2C(=O)CNS(=O)(=O)c2ccc([N+](=O)[O-])cc2)cc1                   115
10  N=C(N)c1ccc(CNC(=O)[C@@H]2CCCN2C(=O)CNS(=O)(=O)c2cccc3ccccc23)cc1                   7.8
11  N=C(N)c1ccc(CNC(=O)[C@@H]2CCCN2C(=O)CNS(=O)(=O)c2cc(Cl)c(Cl)cc2Cl)cc1                   5.9
12  COc1ccc(S(=O)(=O)NCC(=O)N2CCC[C@H]2C(=O)NCc2ccc(C(=N)N)cc2)cc1Cl                  0.44
13  N=C(N)c1ccc(CNC(=O)[C@@H]2CCCN2C(=O)CNS(=O)(=O)c2ccc(Cl)c(Cl)c2)cc1                   2.5
14  N=C(N)c1ccc(CNC(=O)[C@@H]2CCCN2C(=O)CNS(=O)(=O)c2ccccc2Cl)cc1                  19.3
15  N=C(N)c1ccc(CNC(=O)[C@@H]2CCCN2C(=O)CNS(=O)(=O)/C=C/c2ccccc2)cc1                  44.3
16  CCc1ccc(S(=O)(=O)NCC(=O)N2CCC[C@H]2C(=O)NCc2ccc(C(=N)N)cc2)cc1                  19.1
17  CCOc1ccc(S(=O)(=O)NCC(=O)N2CCC[C@H]2C(=O)NCc2ccc(C(=N)N)cc2)cc1 [33b]                    66
18  COc1ccc(S(=O)(=O)NCC(=O)N2CCC[C@H]2C(=O)NCc2ccc(C(=N)N)cc2)cc1OC                   4.7
19  N=C(N)c1ccc(CNC(=O)[C@@H]2CCCN2C(=O)CNS(=O)(=O)c2ccc(Cl)c(Cl)c2Cl)cc1                  16.4
20  N=C(N)c1ccc(CNC(=O)[C@@H]2CCCN2C(=O)CNS(=O)(=O)CCc2ccccc2)cc1                  41.9
21  Cc1cc(C)c(C)c(S(=O)(=O)NCC(=O)N2CCC[C@H]2C(=O)NCc2ccc(C(=N)N)cc2)c1C                  13.4
22  COc1cc(C)c(S(=O)(=O)NCC(=O)N2CCC[C@H]2C(=O)NCc2ccc(C(=N)N)cc2)c(C)c1C                   1.3
23  N#Cc1cccc(S(=O)(=O)NCC(=O)N2CCC[C@H]2C(=O)NCc2ccc(C(=N)N)cc2)c1 [33a]                    48
24  N=C(N)c1ccc(CNC(=O)[C@@H]2CCCN2C(=O)CNS(=O)(=O)c2cccc(Cl)c2Cl)cc1                  12.7
25  N=C(N)c1ccc(CNC(=O)[C@@H]2CCCN2C(=O)CNS(=O)(=O)c2ccccc2)cc1                  10.8
26  N=C(N)c1ccc(CNC(=O)[C@@H]2CCCN2C(=O)CNS(=O)(=O)c2ccc(Cl)cc2)cc1                    10
27  Cc1cc(S(=O)(=O)NCC(=O)N2CCC[C@H]2C(=O)NCc2ccc(C(=N)N)cc2)c(Cl)cc1Cl                  10.5
28  COc1ccc(S(=O)(=O)NCC(=O)N2CCC[C@H]2C(=O)NCc2ccc(C(=N)N)cc2)cc1                  0.97
29  N=C(N)c1ccc(CNC(=O)[C@@H]2CCCN2C(=O)CNS(=O)(=O)CC2CCCCC2)cc1                  13.6
30  N=C(N)c1ccc(CNC(=O)[C@@H]2CCCN2C(=O)CNS(=O)(=O)c2ccc3ccccc3c2)cc1                   8.5
